molecular target: FGFR1 (UniProt P11362); assay: phosphorylation enrichment, bacterial display (enrichment ratio); higher = better substrate or ligand; peptides without Tyr show the background;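 note: 11-residue human phosphosite peptides and single-mutation variants displayed on the E. coli surface, counted by deep sequencing, each peptide's frequency after selection divided by its frequency in the unselected input library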;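 note: frequency after pTyr selection over input frequency; kinase dosed for 20-30% of maximal phosphorylation in three min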
Sequence (P11362 whole entry, looked up): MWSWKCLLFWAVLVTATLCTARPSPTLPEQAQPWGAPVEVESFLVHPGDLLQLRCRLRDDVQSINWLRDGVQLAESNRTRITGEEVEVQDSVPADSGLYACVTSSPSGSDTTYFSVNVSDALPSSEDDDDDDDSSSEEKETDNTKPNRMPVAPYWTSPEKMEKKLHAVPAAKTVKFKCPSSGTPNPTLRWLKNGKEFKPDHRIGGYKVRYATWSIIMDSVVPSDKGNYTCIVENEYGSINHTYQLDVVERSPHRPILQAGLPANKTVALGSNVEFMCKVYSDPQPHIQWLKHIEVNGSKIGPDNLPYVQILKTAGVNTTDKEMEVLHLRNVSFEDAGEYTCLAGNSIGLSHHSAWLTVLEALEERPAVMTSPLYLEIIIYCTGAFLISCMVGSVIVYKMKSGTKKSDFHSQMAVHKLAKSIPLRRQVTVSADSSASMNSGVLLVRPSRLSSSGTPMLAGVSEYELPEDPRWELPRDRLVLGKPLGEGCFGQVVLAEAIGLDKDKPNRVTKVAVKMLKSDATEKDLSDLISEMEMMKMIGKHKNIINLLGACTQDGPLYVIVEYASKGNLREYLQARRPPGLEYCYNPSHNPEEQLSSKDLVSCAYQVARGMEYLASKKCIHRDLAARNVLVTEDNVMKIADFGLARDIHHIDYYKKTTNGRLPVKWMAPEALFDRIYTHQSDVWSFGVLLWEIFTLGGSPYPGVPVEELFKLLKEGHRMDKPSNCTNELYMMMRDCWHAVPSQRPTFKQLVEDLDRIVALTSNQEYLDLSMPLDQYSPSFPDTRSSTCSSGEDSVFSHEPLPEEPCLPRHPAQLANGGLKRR
Label criterion met when phosphorylation enrichment is at or above 0.5; anything below gets criterion not met.

Does the reported phosphorylation enrichment for AVARPYHIQKW [ACSBG1_Y677_A673V] fall at or above the 0.5 mark?
criterion not met

Here is the next sequence: RQSTLYSFFPT [MSH6_Y8_K13T]
criterion met

Now try RIFDFYSARKT [STOX1_Y858_A863T_YF] .
criterion met

Now give it for LIDTVYSSSSA [OR4C12_Y71] too.
criterion met

// next record DEFLEYRRIVG [FAM221A_Y20_YF]
criterion not met

Similarly, GSRGKYSSGFC [ATM_Y332_R337C] ?
criterion not met

// same read-out, input: ESKAGYRVPRS [CLDN7_Y195]
criterion not met

Thanks! And RSSGGYEPRGC [FUS_Y239_R244C] ?
criterion not met

====

For each record, write down the corresponding phosphorylation enrichment.
tested on: Fer (mouse); assay: phosphorylation enrichment, bacterial display (enrichment ratio); higher = better substrate or ligand; peptides without Tyr show the background
I'd appreciate a reply containing only the number, no unit.

State its phosphorylation enrichment on Fer (mouse): NPQKSYFILLF [WAS_Y83_R86L_YF]
0.414

Follow-up entry: AVLSLYASDRT [ACTA1_Y145_G148D]
0.515

How about PFWKLYESVKK [MKI67_Y241] ?
1.8

Same again, this time with RPIEVYLCPEE [E2F3_Y349_G344R]
0.938

Similarly, GRVFVYRLSEQ [ITGAE_Y551_YF] ?
0.425

Consider next the sequence SFPSTYRFERG [INPPL1_Y661_P659S_YF] in the same way.
0.427

====

target: EPHB2 (UniProt P29323); test: phosphorylation enrichment, bacterial display (enrichment ratio); higher = better substrate or ligand; peptides without Tyr show the background
Sequence (P29323 whole entry, looked up): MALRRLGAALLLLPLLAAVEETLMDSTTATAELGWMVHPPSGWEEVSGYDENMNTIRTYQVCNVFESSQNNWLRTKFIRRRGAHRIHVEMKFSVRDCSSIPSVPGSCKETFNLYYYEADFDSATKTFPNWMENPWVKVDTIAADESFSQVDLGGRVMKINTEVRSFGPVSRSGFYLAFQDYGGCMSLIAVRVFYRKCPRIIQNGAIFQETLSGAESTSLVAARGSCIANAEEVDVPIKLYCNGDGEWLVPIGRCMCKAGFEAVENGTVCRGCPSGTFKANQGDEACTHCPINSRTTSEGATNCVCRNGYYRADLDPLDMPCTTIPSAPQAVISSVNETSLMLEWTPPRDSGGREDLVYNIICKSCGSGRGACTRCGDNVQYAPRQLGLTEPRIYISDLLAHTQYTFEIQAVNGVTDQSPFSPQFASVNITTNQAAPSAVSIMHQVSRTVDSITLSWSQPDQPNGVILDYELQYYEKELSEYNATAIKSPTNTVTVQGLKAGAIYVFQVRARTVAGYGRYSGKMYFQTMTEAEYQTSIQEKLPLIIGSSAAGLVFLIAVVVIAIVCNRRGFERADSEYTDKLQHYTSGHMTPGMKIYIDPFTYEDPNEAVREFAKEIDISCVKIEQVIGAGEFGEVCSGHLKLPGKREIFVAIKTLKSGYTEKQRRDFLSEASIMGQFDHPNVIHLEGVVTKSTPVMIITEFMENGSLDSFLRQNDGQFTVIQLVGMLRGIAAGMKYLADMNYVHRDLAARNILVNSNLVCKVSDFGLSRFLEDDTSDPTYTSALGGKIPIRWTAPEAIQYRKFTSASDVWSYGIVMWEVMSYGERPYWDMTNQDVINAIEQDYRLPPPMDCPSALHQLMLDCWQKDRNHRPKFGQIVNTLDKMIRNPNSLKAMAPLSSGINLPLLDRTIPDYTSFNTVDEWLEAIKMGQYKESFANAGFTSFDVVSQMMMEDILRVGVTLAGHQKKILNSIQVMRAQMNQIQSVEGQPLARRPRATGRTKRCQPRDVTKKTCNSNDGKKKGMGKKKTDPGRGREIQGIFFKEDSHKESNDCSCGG
PARAMETER MEASURED: phosphorylation enrichment
Answer with a number only.

Any idea what phosphorylation enrichment came out for NFFDTCIKTCL [IQGAP2_Y1445_Y1445C_YF] on EPHB2 (UniProt P29323)?
0.491

Now this one: MTFQNYGQALF [FAM20C_Y279]
1.65

Try this sequence too: HLQQSYLPRGT [TEX45_Y396]
0.773

How about this sequence: KLSHLYQDHMQ [WNT5A_Y86_C83S]
0.579

What do you get for QSSEGYDLGDR [KIAA1210_Y564_G565D] ?
0.853

Next: KKIMGYSIRTI [IDS_Y490_I485K]
0.405

Also, KQFWRYFAGNL [SLC25A4_Y112] please.
0.53

Next record, please: EAGKVYLKAAM [CBFB_Y96_P100A]
0.484

====

biological target: FGFR1 (UniProt P11362); assay: phosphorylation enrichment, bacterial display (enrichment ratio); higher = better substrate or ligand; peptides without Tyr show the background
Field: phosphorylation enrichment. Provide a value for each of the sequences that follow.
I only need the number, thanks.

# get_value(readout='phosphorylation enrichment', item= QPSALYEDRFL [ASS1_Y83_S79P_YF] )
0.816

Try this sequence next: FDKPVYQKTTE [LDLR_Y828_N825K]
0.518

Now this one: LARDMYDKEYY [MET_Y1230]
0.921

// next record LGGAMYYLEAE [PKHD1_Y452]
2.22

Do the same for VSFDEYRFRSV [CFTR_Y515_YF] please
0.515

Would you mind doing RKPDIYERLAS [MCM4_Y459] as well?
0.671

Do the same for SPLTDYSPQLQ [OTC_Y345_L341P] please
0.522

Request: ILQSMYGCDVG [HLA-B_Y123_T118I]
0.403

Follow-up item: REEKNYKHKET [BCLAF1_Y459_L461H]
0.635

Next up: VFLGAYDHFLP [SLC22A5_Y486_R488H_YF]
0.611

Please answer likewise for TVSQPYSFIEF [SEC22B_Y110_R108Q]
11.5

Note, next up: IRRQGYSHRIL [MYO3B_Y993]
0.374

Request: YETSHYLASPD [CTNND2_Y1217_P1218L]
0.649

Thanks! And AEFGLYGAMVW [VSX2_Y222_R227W_YF] ?
0.645

Note, next up: RFLKDYGEFEV [GINS1_Y156_C152Y_YF]
0.582

# iterate: SGRPGYCLGTR [SCO1_Y60]
0.406

Next entry: IDPFTYTPFGS [CYP3A4_Y432_I431T_YF]
0.486

Next up: GNHISYYQSDG [CACNA1C_Y1757_V1755I]
0.655

Proceed to YQQLFYLLQIN [IQGAP2_Y890_T894I]
2.23

Then NNDLCYWVLEL [IARS1_Y434_P437L] ?
7.77
